molecular target: stromelysin 1 (UniProt P08254 100-477, limits assumed); assay: cell-based or functional assay
Sequence (P08254 100-477 limits assumed): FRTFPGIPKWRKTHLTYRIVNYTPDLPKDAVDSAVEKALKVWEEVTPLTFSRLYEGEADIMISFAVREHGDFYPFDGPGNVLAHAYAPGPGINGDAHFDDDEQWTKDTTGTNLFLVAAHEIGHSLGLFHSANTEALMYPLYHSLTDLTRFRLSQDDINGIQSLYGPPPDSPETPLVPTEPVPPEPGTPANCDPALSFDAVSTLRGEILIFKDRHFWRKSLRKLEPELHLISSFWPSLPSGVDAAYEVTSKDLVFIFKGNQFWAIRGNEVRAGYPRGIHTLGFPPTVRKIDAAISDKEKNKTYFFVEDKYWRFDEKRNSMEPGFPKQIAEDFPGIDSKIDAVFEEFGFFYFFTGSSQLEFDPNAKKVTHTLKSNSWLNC
*1 amine or outer side, *2 acyl side, *3 side chain or, on linkers, in order; H or OH if unused. [ ]: non-standard residue; d: D form. The star is where a group is joined. Dnp = O=[N+]([O-])c1ccc(*)c([N+](=O)[O-])c1; C(Me) = CSC[C@H](N[*:1])C(=O)[*:2]
So basically: Selectivity v. Coll-3 at 500 unitless or higher? That is Fulfilled. Lower than 500 unitless? That is Not fulfilled.

Binder	Category label
Dnp-GPLGFRV[C(Me)]-NH2 (SMILES CSC[C@H](NC(=O)[C@@H](NC(=O)[C@H](CCCNC(=N)N)NC(=O)[C@H](Cc1ccccc1)NC(=O)CNC(=O)[C@H](CC(C)C)NC(=O)[C@@H]1CCCN1C(=O)CNc1ccc([N+](=O)[O-])cc1[N+](=O)[O-])C(C)C)C(N)=O) [Dnp-GPLGFRVC(Me)-NH2]	Fulfilled
Dnp-GPLPLHG[C(Me)]-NH2 (SMILES CSC[C@H](NC(=O)CNC(=O)[C@H](Cc1c[nH]cn1)NC(=O)[C@H](CC(C)C)NC(=O)[C@@H]1CCCN1C(=O)[C@H](CC(C)C)NC(=O)[C@@H]1CCCN1C(=O)CNc1ccc([N+](=O)[O-])cc1[N+](=O)[O-])C(N)=O) [Dnp-GPLPLHGC(Me)-NH2]	Fulfilled
Dnp-GPHPFRG-NH2 (SMILES N=C(N)NCCC[C@H](NC(=O)[C@H](Cc1ccccc1)NC(=O)[C@@H]1CCCN1C(=O)[C@H](Cc1c[nH]cn1)NC(=O)[C@@H]1CCCN1C(=O)CNc1ccc([N+](=O)[O-])cc1[N+](=O)[O-])C(=O)NCC(N)=O) [Dnp-GPHPFRG-NH2]	Fulfilled
Dnp-GPAPLHV[C(Me)]-NH2 (SMILES CSC[C@H](NC(=O)[C@@H](NC(=O)[C@H](Cc1c[nH]cn1)NC(=O)[C@H](CC(C)C)NC(=O)[C@@H]1CCCN1C(=O)[C@H](C)NC(=O)[C@@H]1CCCN1C(=O)CNc1ccc([N+](=O)[O-])cc1[N+](=O)[O-])C(C)C)C(N)=O) [Dnp-GPAPLHVC(Me)-NH2]	Not fulfilled
Dnp-DEGPMGLK[C(Me)]YLG-NH2 (SMILES CSCC[C@H](NC(=O)[C@@H]1CCCN1C(=O)CNC(=O)[C@H](CCC(=O)O)NC(=O)[C@H](CC(=O)O)Nc1ccc([N+](=O)[O-])cc1[N+](=O)[O-])C(=O)NCC(=O)N[C@@H](CC(C)C)C(=O)N[C@@H](CCCCN)C(=O)N[C@@H](CSC)C(=O)N[C@@H](Cc1ccc(O)cc1)C(=O)N[C@@H](CC(C)C)C(=O)NCC(N)=O) [Dnp-…(Me)YLG-NH2]	Not fulfilled

Now take the following binder into account.
Decide: is the reported value of Selectivity v. Coll-3 for Dnp-GPVNLHG-NH2 (SMILES CC(C)C[C@H](NC(=O)[C@H](CC(N)=O)NC(=O)[C@@H](NC(=O)[C@@H]1CCCN1C(=O)CNc1ccc([N+](=O)[O-])cc1[N+](=O)[O-])C(C)C)C(=O)N[C@@H](Cc1c[nH]cn1)C(=O)NCC(N)=O) [Dnp-GPVNLHG-NH2] equal to or greater than 500 unitless?
Fulfilled
